Assay: in vivo
Conditions: female, CB-17 SCID, mouse, BT474 tumor, po, 200 mg/kg, Cmax, single dose
valueKind: Cmax
Report field: quantity (unit follows the number).

For the compound shown here, `CS(=O)(=O)CCNCc1ccc(-c2ccc3ncnc(Nc4ccc(OCc5cccc(F)c5)c(Cl)c4)c3c2)o1` , give the reported Cmax.
44000 ng/mL

----------
Assay: in vivo
Details: female, CB-17 SCID, mouse, liver, po, 100 mg/kg, Cmax, 100 mg/kg BID, multiple doses
valueKind: Cmax (µg/mL)
Just the number please, in µg/mL, no unit attached.

For the molecule shown here, `CS(=O)(=O)CCNCc1ccc(-c2ccc3ncnc(Nc4ccc(OCc5cccc(F)c5)c(Cl)c4)c3c2)o1` , give the reported Cmax.
119

----------
Experiment: in vivo
Conditions: female, CB-17 SCID, mouse, blood, oral, 100 mg/kg, Concentration, individual animals 1-3, blood, 100 mg/kg BID, 10 h
valueKind: concentration at 10 h (µg/mL)
Just the number please, in µg/mL, no unit attached.

For the compound shown here, CS(=O)(=O)CCNCc1ccc(-c2ccc3ncnc(Nc4ccc(OCc5cccc(F)c5)c(Cl)c4)c3c2)o1 [lapatinib] , give the reported concentration at 10 h.
3.08

----------
Assay: in vivo
Settings: female, CB-17 SCID, mouse, blood, po, 200 mg/kg, MRTlast, 200 mg/kg QD, multiple doses
valueKind: MRT last

For the compound shown here, `CS(=O)(=O)CCNCc1ccc(-c2ccc3ncnc(Nc4ccc(OCc5cccc(F)c5)c(Cl)c4)c3c2)o1` , give the reported MRT last.
7.3 h

----------
Assay: in vivo
Conditions: female, CB-17 SCID, mouse, blood, po, 200 mg/kg, MRTlast, single dose
valueKind: MRT last (h)
Just the number please, in h, no unit attached.

For the compound shown here, `CS(=O)(=O)CCNCc1ccc(-c2ccc3ncnc(Nc4ccc(OCc5cccc(F)c5)c(Cl)c4)c3c2)o1` , give the reported MRT last.
8.5

----------
Experiment: in vivo
Conditions: female, CB-17 SCID, mouse, liver, oral, 100 mg/kg, Concentration, individual animals 1-3, liver, 100 mg/kg BID, 72 h
valueKind: concentration at 72 h
Report field: quantity (unit follows the number).

For the compound shown here, `CS(=O)(=O)CCNCc1ccc(-c2ccc3ncnc(Nc4ccc(OCc5cccc(F)c5)c(Cl)c4)c3c2)o1` , give the reported concentration at 72 h.
121 ng/mL

----------
Assay: in vivo
Details: female, CB-17 SCID, mouse, blood, po, 100 mg/kg, MRTlast, single dose
valueKind: MRT last (h)
Just the number please, in h, no unit attached.

For the molecule shown here, CS(=O)(=O)CCNCc1ccc(-c2ccc3ncnc(Nc4ccc(OCc5cccc(F)c5)c(Cl)c4)c3c2)o1 [lapatinib] , give the reported MRT last.
6.3

----------
Experiment: in vivo
Settings: female, CB-17 SCID, mouse, liver, po, 100 mg/kg, Tmax, 100 mg/kg BID, multiple doses
valueKind: Tmax (h)
Just the number please, in h, no unit attached.

For the compound shown here, CS(=O)(=O)CCNCc1ccc(-c2ccc3ncnc(Nc4ccc(OCc5cccc(F)c5)c(Cl)c4)c3c2)o1 [lapatinib] , give the reported Tmax.
10

----------
Test: in vivo
Conditions: female, CB-17 SCID, mouse, kidney, oral, 100 mg/kg, AUClast, single dose
valueKind: AUC(0-t) (µg·h/mL)
Just the number please, in µg·h/mL, no unit attached.

For the compound shown here, `CS(=O)(=O)CCNCc1ccc(-c2ccc3ncnc(Nc4ccc(OCc5cccc(F)c5)c(Cl)c4)c3c2)o1` , give the reported AUC(0-t).
267
